System: phosphorylation of ERK, KRAS G12V in SW620
Assay: pERK inhibition assay, KRAS G12V
Format: cell-based, human
Settings: Homo sapiens, SW-620, SW620, 4 hours
Description: This assay is to measure the ability of test compounds in inhibiting the phosphorylation of ERK, the downstream signaling of KRAS G12C in NCJ-H358 cells, KRAS G12D in AGS cells, and KRAS G12V in SW620. […] The amount of phosphor-ERK was determined using an antibody specific for phosphorylated form of ERK. […] 50 μL stop solution (abcam-ab171529) were added, and then read the signal (OD450) by EnVision. IC50 was determined by fitting a 4-parameter sigmoidal concentration response model.
Could you please report measured pIC50 for the items listed next?
One number for each entry, as −log10 of the molar value.

Known results for compounds:
1) CO[C@@H](C)c1ncc(N2CCN(C)CC2)cc1-c1c2c3cc(c(C)cc3n1CC(F)(F)F)-c1csc(n1)C[C@H](NC(=O)[C@H](C(C)C)N(C)C(=O)[C@H]1CCN(C(=O)[C@H](F)Cl)C1)C(=O)N1CCC[C@H](N1)C(=O)OCC(C)(C)C2 (atropisomer, axis not shown; (M)) : 6.86
2) CO[C@@H](C)c1ncc(N2CCN(C)CC2)cc1-c1c2c3cc(c(F)cc3n1CC(F)(F)F)-c1csc(n1)C[C@H](NC(=O)[C@H](C(C)C)N(C)C(=O)[C@H]1CCN(C(=O)[C@H](F)Cl)C1)C(=O)N1CCC[C@H](N1)C(=O)OCC(C)(C)C2 (atropisomer, axis not shown; (M)) : 7.70
3) CCn1c(-c2cc(N3CCOCC3)cnc2[C@H](C)OC)c2c3cc(c(F)cc31)-c1csc(n1)C[C@H](NC(=O)[C@H](C(C)C)N1CCC3(CCN(C(=O)[C@H](F)Cl)CC3)C1=O)C(=O)N1CCC[C@H](N1)C(=O)OCC(C)(C)C2 (atropisomer, axis not shown; (M)) : 8.22
4) CO[C@@H](C)c1ncc(N2CCN(C)CC2)cc1-c1c2c3cc(c(F)cc3n1CC(F)(F)F)-c1csc(n1)C[C@H](NC(=O)[C@H](COC1CN(C(=O)[C@H](F)Cl)C1)C(C)C)C(=O)N1CCC[C@H](N1)C(=O)OCC(C)(C)C2 (atropisomer, axis not shown; (M)) : 7.11
5) CCn1c(-c2cc(N3CCN(CC(F)(F)F)CC3)cnc2[C@H](C)OC)c2c3cc(c(F)cc31)-c1csc(n1)C[C@H](NC(=O)[C@H](C(C)C)N1CCCC3(CCN(C(=O)[C@H](F)Cl)CC3)C1=O)C(=O)N1CCC[C@H](N1)C(=O)OCC(C)(C)C2 (atropisomer, axis not shown; (M)) : 7.92

Here is the next item to consider.
## Input pIC50 for CCn1c(-c2cc(N3CCN(CC(F)(F)F)CC3)cnc2[C@H](C)OC)c2c3cc(c(F)cc31)-c1csc(n1)C[C@H](NC(=O)[C@H](C(C)C)N1CCC3(CCN(C(=O)[C@H](F)Cl)CC3)C1=O)C(=O)N1CCC[C@H](N1)C(=O)OCC(C)(C)C2 (atropisomer, axis not shown; (M)) ?
## Output 7.36
